Tested on: liver cell (galactosamine-induced toxicity)
Experiment: Protection effect against galactosamine-induced toxicity of liver cell (GPT activity, relative protection)
Assay type: cell-based, male Wister rats
Settings: Rattus norvegicus; 5 μg/ml of compound concentration; 1.5 mM galactosamine, 14 h; healthy liver cell = 100%, toxicity = 0%
Overview of recorded Relative liver cell protection (%) at 5 µg/mL for various compounds
readout.type: Relative liver cell protection (%) at 5 µg/mL

compound	unit.descriptor	readout.value
CCOC(C)OC(=O)[C@]12CC[C@@H](C)[C@H](C)[C@H]1C1=CC[C@@H]3[C@@]4(C)C[C@@H](O)[C@H](O)[C@@](C)(CO)[C@@H]4CC[C@@]3(C)[C@]1(C)CC2 (some centres unmarked) [1-Ethoxyethyl asiatate, 1-ethoxyethyl asiatate]	%	66
CCOCOC(=O)[C@]12CC[C@@H](C)[C@H](C)[C@H]1C1=CC[C@@H]3[C@@]4(C)C[C@@H](O)[C@@H]5OC(C)(C)OC[C@@]5(C)[C@@H]4CC[C@@]3(C)[C@]1(C)CC2	%	66
C[C@H]1[C@H](C)CC[C@]2(C(=O)O)CC[C@]3(C)C(=CC[C@@H]4[C@@]5(C)CC(=O)[C@H](O)[C@@](C)(CO)[C@@H]5CC[C@]43C)[C@H]12 [2-Oxoasiatic acid, 2-oxoasiatic acid]	%	15
CC(=O)OC[C@@]1(C)[C@@H]2CC[C@]3(C)[C@H](CC=C4[C@@H]5[C@@H](C)[C@H](C)CC[C@]5(C(=O)OC5CCCCO5)CC[C@]43C)[C@@]2(C)CC[C@@H]1OC(C)=O (some centres unmarked)	%	58
COC(=O)[C@]12CC[C@@H](C)[C@H](C)[C@H]1C1=CC[C@@H]3[C@@]4(C)C[C@@H](OC(C)=O)C(=O)[C@@](C)(C=O)[C@@H]4CC[C@@]3(C)[C@]1(C)CC2	%	42

====

Assay: in vivo
Conditions: mouse, in vivo, ip

input.smiles	LD50 (mg/kg)
C[C@H]1[C@H](C)CC[C@]2(C(=O)O)CC[C@]3(C)C(=CC[C@@H]4[C@@]5(C)CC(=O)[C@H](O)[C@@](C)(CO)[C@@H]5CC[C@]43C)[C@H]12	750
